self-cleavage: recorded values
B1: LINE1-full (parent)
chain: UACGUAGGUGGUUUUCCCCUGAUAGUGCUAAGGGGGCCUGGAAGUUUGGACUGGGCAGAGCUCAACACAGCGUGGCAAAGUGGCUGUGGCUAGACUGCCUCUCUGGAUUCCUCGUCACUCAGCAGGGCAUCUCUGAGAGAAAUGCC

Variants of: B1
Protocol: self-cleavage, relative activity (ratio to wild type); higher = more cleavage; in vitro, sequencing; the parent is a self-cleaving ribozyme

mutant_designation="U14A C131U" reported=0.21
mutant_designation="A50G A59G" reported=0.26
mutant_designation="A42G G83A" reported=0.96
mutant_designation="U39G U85C" reported=0.14

Now consider the entry below.
Name the reported self-cleavage value associated with the variant A31U G144U
1.03
